A collection of molecules and their measured Ki
Target: 5-hydroxytryptamine receptor 2A (Homo sapiens, UniProt P28223)
Sequence (P28223 whole entry): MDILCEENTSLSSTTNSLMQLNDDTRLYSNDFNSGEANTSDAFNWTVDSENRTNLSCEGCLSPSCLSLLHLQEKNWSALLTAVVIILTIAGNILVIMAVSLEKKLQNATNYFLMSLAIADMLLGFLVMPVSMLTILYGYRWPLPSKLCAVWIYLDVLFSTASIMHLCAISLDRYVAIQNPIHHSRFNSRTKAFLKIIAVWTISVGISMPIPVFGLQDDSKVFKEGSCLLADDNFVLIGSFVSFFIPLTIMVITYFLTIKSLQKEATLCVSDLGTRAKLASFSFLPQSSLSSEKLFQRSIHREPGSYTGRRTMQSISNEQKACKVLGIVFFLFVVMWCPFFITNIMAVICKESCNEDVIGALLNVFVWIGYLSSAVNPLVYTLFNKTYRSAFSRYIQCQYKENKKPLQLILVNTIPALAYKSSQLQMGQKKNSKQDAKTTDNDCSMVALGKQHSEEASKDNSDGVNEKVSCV
Assay: Binding affinity to human 5-HT2A transfected in human tsA201 cells assessed as inhibition constant incubated for 2 hrs by scintillation counter analysis
Assay type: cell-based

What measured Ki goes with `COc1cc(Br)c(OCC[18F])cc1CCNCc1ccccc1OC` ?
< 1.2 nM

Let us examine a further case.
What measured Ki goes with `COc1cc(CCNCc2ccccc2OC)c(OCC[18F])cc1Br` ?
< 1.2 nM

* * *

Biological target: UniProtKB P61169
Sequence (P61169 whole entry): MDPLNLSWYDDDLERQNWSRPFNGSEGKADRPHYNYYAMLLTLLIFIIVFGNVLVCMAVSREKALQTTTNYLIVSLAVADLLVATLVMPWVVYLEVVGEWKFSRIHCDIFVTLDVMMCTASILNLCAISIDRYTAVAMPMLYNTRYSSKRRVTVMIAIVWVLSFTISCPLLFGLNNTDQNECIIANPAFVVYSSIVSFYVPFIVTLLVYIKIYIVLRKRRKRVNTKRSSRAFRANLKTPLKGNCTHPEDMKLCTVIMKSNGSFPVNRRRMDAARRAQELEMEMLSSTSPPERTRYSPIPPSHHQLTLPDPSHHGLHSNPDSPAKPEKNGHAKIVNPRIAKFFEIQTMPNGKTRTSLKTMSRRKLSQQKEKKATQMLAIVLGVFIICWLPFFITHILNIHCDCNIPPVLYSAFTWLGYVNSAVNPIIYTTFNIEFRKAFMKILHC
Experiment: Binding affinity to rat brain homogenate D2 receptor assessed as dissociation constant
Format: tissue-based
metric: Ki (nM)
Output spec: scalar in nM, unitless text.

What measured Ki goes with COc1ccccc1N1CCN(CCn2cc(COCC(COc3ccc([Si]([18F])(C(C)(C)C)C(C)(C)C)cc3)OCc3cn(CCN4CCN(c5ccccc5OC)CC4)nn3)nn2)CC1 (stereo unspecified) ?
2.2
